These data points were gathered from the supplement of paper PMC4862054.

Consider the following molecules; for each one, report its normalised response.
- Test system: MCF-10A
- assay procedure: normalised response (% of control), CellTiter-Glo; higher = more viable cells (100 = DMSO, 0 = benzethonium chloride kill control)
- condition description: incubation time: 72 h
Answers are plain numbers, in %.

Solved cases (2 shown):
molecule: O=C(CCCCCCC(=O)Nc1ccccc1)NO [Vorinostat] (100 nM)
measured on: MCF-10A
unit name: %
normalised response: 101

molecule: CC(C)(C)NC(=O)[C@H]1CC[C@H]2[C@@H]3CC[C@H]4NC(=O)C=C[C@]4(C)[C@H]3CC[C@]12C [Finasteride] (100 nM)
measured on: MCF-10A
unit name: %
normalised response: 110

Report normalised response for every entry below.
1. CC1(COc2ccc3c(c2)ncn3-c2ccc3cccc(N4CCC(N)CC4)c3n2)COC1 [Crenolanib] (100 nM)
2. CC[C@H](CO)Nc1nc(NCc2ccccc2)c2ncn(C(C)C)c2n1 [Seliciclib] (100 nM)
3. CNC(=O)c1ccccc1Sc1ccc2c(/C=C/c3ccccn3)n[nH]c2c1 [Axitinib] (100 nM)
4. CCNC(=O)c1noc(-c2cc(C(C)C)c(O)cc2O)c1-c1ccc(CN2CCOCC2)cc1 [NVP-AUY922] (10 nM)
5. CC(C)C[C@H](NC(=O)[C@@H](COC(C)(C)C)NC(=O)[C@H](Cc1ccc(O)cc1)NC(=O)[C@H](CO)NC(=O)[C@H](Cc1c[nH]c2ccccc12)NC(=O)[C@H](Cc1cnc[nH]1)NC(=O)[C@@H]1CCC(=O)N1)C(=O)N[C@@H](CCCNC(=N)N)C(=O)N1CCC[C@H]1C(=O)NNC(N)=O [Goserelin] (100 nM)
6. Nc1ccn([C@@H]2O[C@H](CO)[C@@H](O)C2(F)F)c(=O)n1 [Gemcitabine] (10 nM)

Reply:
1. 110
2. 97.1
3. 100
4. 95
5. 94
6. 102

====

Kindly state drug sensitivity score for each of the entries shown.
- Test system: HDQ-P1
- assay procedure: drug sensitivity score (DSS), CellTiter-Blue viability (DSS (AUC-based score)); higher = stronger viability inhibition; extreme values may be limits of the assay
- condition description: incubation time: 72 h

# annotated cases, reported drug sensitivity score shown
smiles code: COc1cc(Nc2c(C#N)cnc3cc(OCCCN4CCN(C)CC4)c(OC)cc23)c(Cl)cc1Cl
measured on: HDQ-P1
drug sensitivity score: 6.6

smiles code: CCNC(=O)CCC/C=C\C[C@@H]1[C@@H](/C=C/[C@@H](O)CCc2ccccc2)[C@H](O)C[C@@H]1O
measured on: HDQ-P1
drug sensitivity score: 0

smiles code: CC1(C)CCC(c2ccc(Cl)cc2)=C(CN2CCN(c3ccc(C(=O)NS(=O)(=O)c4ccc(N[C@H](CCN5CCOCC5)CSc5ccccc5)c(S(=O)(=O)C(F)(F)F)c4)cc3)CC2)C1
measured on: HDQ-P1
drug sensitivity score: 9.87

smiles code: Nc1ccn([C@@H]2O[C@H](CO)[C@@H](O)C2(F)F)c(=O)n1
measured on: HDQ-P1
drug sensitivity score: 0

Field: next compound
Query: Can you look up the measured drug sensitivity score of "COc1ccc(S(=O)(=O)Nc2cccnc2Nc2ccc(O)cc2)cc1" for me?
Reply: 12

====

- Test system: Hs578T
- assay procedure: drug sensitivity score (DSS), CellTiter-Blue viability (DSS (AUC-based score)); higher = stronger viability inhibition; extreme values may be limits of the assay
- condition description: incubation time: 72 h
property name: drug sensitivity score
Answers are plain numbers.

Answered cases to consult:
compound: COc1ccc(S(=O)(=O)Nc2cccnc2Nc2ccc(O)cc2)cc1
drug sensitivity score: 17.3
//
compound: CC(O)(CS(=O)(=O)c1ccc(F)cc1)C(=O)Nc1ccc(C#N)c(C(F)(F)F)c1 (stereo not given) [Bicalutamide]
drug sensitivity score: 0
//
compound: COc1cc(Nc2c(C#N)cnc3cc(OCCCN4CCN(C)CC4)c(OC)cc23)c(Cl)cc1Cl
drug sensitivity score: 3.1
//
compound: CCN(CC)CCCC(C)Nc1ccnc2cc(Cl)ccc12 (stereo not given)
drug sensitivity score: 0

Query: I would be grateful if you could share the reported drug sensitivity score for "COc1c2occc2cc2ccc(=O)oc12" .
Reply: 0
